Measured Hemolytic Activity (HC50) (µg/mL) of individual entries
Tested on: human red blood cells
Protocol Summary: Red blood cell lysis assay
Format: cell-based
Test Parameters: human erythrocytes, 37 °C, 1 h
Method: The hemolytic activities of spiro-acridines were determined using human red blood cells from healthy adults (n = 9) according to the method described by Jain et al. (2015). Briefly, 80 µL of a 5% erythrocyte/phosphate-buffered saline (PBS) suspension was mixed with 20 µL of a series of concentrations (400, 200, 100, 50, 25, 12.5, 6.25, 3.13 µg/mL) of spiro-acridine and reference drugs. […] The supernatants were collected, and hemolysis was measured spectrophotometrically at 540 nm. […]
Endpoint Label: Hemolytic Activity (HC50) (µg/mL)

1. O=C(/C=C/c1ccccc1)OCc1ccc2c(c1)OCO2 [Compound 15, piperonyl cinnamate] : > 400 µg/mL
2. Cc1ccc(COC(=O)C=Cc2ccccc2)cc1 [Compound 11] : > 400 µg/mL
3. O=C(/C=C/c1ccccc1)NCc1ccc2c(c1)OCO2 [Compound 34] : > 400 µg/mL
4. CCCCOC(=O)/C=C/c1ccccc1 [Compound 6] : > 400 µg/mL
5. C[C@@H]1[C@H](O)[C@@H](C)/C=C/C=C/C=C/C=C/C=C/C=C/C=C/[C@H](O[C@@H]2O[C@H](C)[C@@H](O)[C@H](N)[C@@H]2O)C[C@@H]2O[C@](O)(C[C@@H](O)C[C@@H](O)[C@H](O)CC[C@@H](O)C[C@@H](O)CC(=O)O[C@H]1C)C[C@H](O)[C@H]2C(=O)O [Amphotericin B, reference compound] : 6.53 µg/mL
6. CC(C)c1ccc(CNC(=O)C=Cc2ccccc2)cc1 [Compound 32, N-(4-isopropylbenzyl)cinnamamide] : > 400 µg/mL
